ASSAYED SYSTEM: CYP2C19 (Homo sapiens, UniProt P33261)
Sequence (P33261 whole entry): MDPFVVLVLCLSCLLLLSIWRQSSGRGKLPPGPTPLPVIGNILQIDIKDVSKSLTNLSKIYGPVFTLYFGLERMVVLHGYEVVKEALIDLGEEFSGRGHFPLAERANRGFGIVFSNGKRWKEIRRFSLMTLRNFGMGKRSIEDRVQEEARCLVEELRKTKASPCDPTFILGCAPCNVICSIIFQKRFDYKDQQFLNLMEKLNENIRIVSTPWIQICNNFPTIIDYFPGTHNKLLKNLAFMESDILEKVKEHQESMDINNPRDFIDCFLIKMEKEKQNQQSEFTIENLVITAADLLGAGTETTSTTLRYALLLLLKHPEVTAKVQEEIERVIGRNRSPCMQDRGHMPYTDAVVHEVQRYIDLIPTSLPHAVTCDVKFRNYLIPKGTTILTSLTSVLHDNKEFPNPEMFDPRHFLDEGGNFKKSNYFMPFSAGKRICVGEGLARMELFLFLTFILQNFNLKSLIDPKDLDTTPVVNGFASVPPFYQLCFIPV
Reported IC50 is given for each of the following compounds.
Report as a plain number; the unit µM is understood.

COMPOUND	ASSAYED SYSTEM	IC50 [µM]
C=CC(=O)N1CCC(Oc2cc3c(Nc4ccc(Cl)c(Cl)c4F)ncnc3cc2OC)CC1 [Poziotinib, reference compound]	CYP2C19 (Homo sapiens, UniProt P33261)	12

// next entry
QUERY: IC50 lookup needed for `C=CC(=O)N1[C@@H]2CC[C@H]1C[C@H](Nc1cc3c(Nc4ccc(Cl)c(Cl)c4F)ncnc3cc1OC)C2` , thanks.
RESULT: 11
